- assayDetails: In vitro microsomal stability, rat liver microsomes
- Assay type: in vitro ADME
- experimentalConditions: remaining fraction after 30 min; 1 μM compound, 0.5 mg/mL rat liver microsomes, 1 mM NADPH
Below, each entry is listed with its recorded Rem. @ rLM (%).
Kindly provide the numeric value in % only, without the unit symbol.

O=C(Nc1cnn(Cc2ccc(C(F)(F)F)cc2C(F)(F)F)c1)c1cc(-c2ccccn2)on1; 44.8

The reported Rem. @ rLM (%) of the molecule `O=C(Nc1cnn(Cc2ccc(C(F)(F)F)cc2C(F)(F)F)c1)c1cc(-c2ncccn2)on1` was 84.5

The reported Rem. @ rLM (%) of the molecule `C[C@H](c1ccc(F)cc1C(F)(F)F)n1cc(NC(=O)c2cc(-c3ccccn3)on2)cn1` was 60.99

The reported Rem. @ rLM (%) of the molecule `Cc1nn([C@H](C)c2ccc(C(F)(F)F)cc2C(F)(F)F)cc1NC(=O)c1cc(-c2ccccn2)on1` was 60.9

The reported Rem. @ rLM (%) of the molecule CC(c1ccc(C(F)(F)F)cc1C(F)(F)F)n1cc(NC(=O)c2cc(-c3ccccn3)on2)cn1 (single isomer, unassigned) [“Enantiomer A” of Example S5] was 80

The reported Rem. @ rLM (%) of the molecule `C[C@H](c1ccc(C(F)(F)F)cc1C(F)(F)F)n1cc(NC(=O)c2nnc(-c3cnccn3)s2)cn1` was 86.4

###

Below, each entry is listed with its recorded IC50.
- assayedTarget: CYP2D6 (Homo sapiens (Human), UniProt P10635)
- Sequence (P10635 whole entry): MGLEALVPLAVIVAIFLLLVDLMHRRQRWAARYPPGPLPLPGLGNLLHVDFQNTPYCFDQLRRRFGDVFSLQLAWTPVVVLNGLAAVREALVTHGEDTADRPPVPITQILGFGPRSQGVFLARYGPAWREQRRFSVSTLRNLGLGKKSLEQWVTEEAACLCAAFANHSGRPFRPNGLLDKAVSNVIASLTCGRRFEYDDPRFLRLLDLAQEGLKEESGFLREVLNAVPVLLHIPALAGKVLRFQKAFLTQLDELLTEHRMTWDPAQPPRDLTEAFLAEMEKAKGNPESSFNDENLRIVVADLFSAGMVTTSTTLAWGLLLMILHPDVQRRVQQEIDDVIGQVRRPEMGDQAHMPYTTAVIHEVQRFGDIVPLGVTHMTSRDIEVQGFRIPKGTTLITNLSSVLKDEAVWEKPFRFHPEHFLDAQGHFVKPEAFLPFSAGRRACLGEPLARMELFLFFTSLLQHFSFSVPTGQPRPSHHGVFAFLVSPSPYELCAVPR
- assayDetails: CYP inhibition in human liver microsomes
- experimentalConditions: read-out: CYP-2D6; human liver microsomes; probe substrate dextromethorphan
Kindly provide the numeric value in µM only, without the unit symbol.

C[C@H](c1ccc(C(F)(F)F)cc1C(F)(F)F)n1cc(NC(=O)c2cc(-c3ccccn3)no2)cn1; 7.54
CC(c1ccc(C(F)(F)F)cc1C(F)(F)F)n1cc(NC(=O)c2cnc(-c3ccccn3)s2)cn1 (stereo not shown); 2.78

Lab note: next compound to report on.
The reported IC50 of the compound `Cc1nn([C@H](C)c2ccc(C(F)(F)F)cc2C(F)(F)F)cc1NC(=O)c1cc(-c2ccccn2)on1` was 32

###

- assayedTarget: UniProt:P05177
- Sequence (P05177 whole entry): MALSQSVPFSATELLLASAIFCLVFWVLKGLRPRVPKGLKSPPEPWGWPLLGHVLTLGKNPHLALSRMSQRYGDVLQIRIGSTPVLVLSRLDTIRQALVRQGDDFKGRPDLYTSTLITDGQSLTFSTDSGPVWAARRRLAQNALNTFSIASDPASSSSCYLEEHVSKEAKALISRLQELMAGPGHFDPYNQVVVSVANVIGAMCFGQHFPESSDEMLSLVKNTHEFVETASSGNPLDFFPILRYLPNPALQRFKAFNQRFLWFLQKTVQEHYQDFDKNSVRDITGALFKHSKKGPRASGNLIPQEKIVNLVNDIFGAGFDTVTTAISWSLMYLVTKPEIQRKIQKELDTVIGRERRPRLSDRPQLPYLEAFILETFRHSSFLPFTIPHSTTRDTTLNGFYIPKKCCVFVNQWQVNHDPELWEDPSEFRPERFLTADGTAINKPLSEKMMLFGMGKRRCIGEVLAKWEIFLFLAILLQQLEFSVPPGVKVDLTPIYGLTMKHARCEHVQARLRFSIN
- assayDetails: CYP inhibition in human liver microsomes
- experimentalConditions: read-out: CYP-1A2; human liver microsomes; probe substrate phenacetin
attributeMeasured: pIC50
// returns pIC50 (minus log10 of molar concentration), number only

The reported pIC50 of the molecule CC(c1ccc(C(F)(F)F)cc1C(F)(F)F)n1cc(NC(=O)c2cnc(-c3ccccn3)s2)cn1 (centres unmarked) was 4.65

###

- experimentalConditions: Balb/c, mouse, in vivo, po, 10 mg/kg
attributeMeasured: AUCExtr [%] (%)
Kindly provide the numeric value in % only, without the unit symbol.

Below, 5 molecules whose answers are already recorded.
CC(c1ccc(C(F)(F)F)cc1C(F)(F)F)n1cc(NC(=O)c2cc(-c3ccccn3)on2)cn1 (single isomer, unassigned) [“Enantiomer A” of Example S5]; 43
C[C@H](c1ccc(C(F)(F)F)cc1C(F)(F)F)n1cc(NC(=O)c2cc(-c3ccccn3)no2)cn1; 2.55
O=C(Nc1cnn(Cc2ccc(C(F)(F)F)cc2C(F)(F)F)c1)c1cc(-c2cnccn2)on1; 14
C[C@H](c1ccc(C(F)(F)F)cc1C(F)(F)F)n1cc(NC(=O)c2nnc(-c3ccccn3)s2)cn1; 37.7
O=C(Nc1cnn(Cc2ccc(C(F)(F)F)cc2C(F)(F)F)c1)c1cc(-c2ccccn2)on1; 5.07

The reported AUCExtr [%] of the molecule `C[C@H](c1ccc(C(F)(F)F)cc1C(F)(F)F)n1cc(NC(=O)c2cc(-c3cnccn3)on2)cn1` was 7.75

The reported AUCExtr [%] of the molecule CC(c1ccc(C(F)(F)F)cc1C(F)(F)F)n1cc(NC(=O)c2cc(-c3ccco3)on2)cn1 (single isomer, unassigned) [“Enantiomer A” of Example S6] was 1.73
